Hey, just so you know, these numbers are from patent US20060093617A1.

Molecular target: HLA-Cw0602 (human)
pKi: −log10 of the molar value.

binder | pKi
ARALAHGVRV (modifications not checked) […] | 5.01
